Molecular target: T1, biotinylated human CK1δ kinase domain (CK1δ ΔC, residues 1–317) (human, UniProt P48730 1-317, biotin on the N-terminus (Sortase A reaction of biotin-LPETGG with the N-terminal G of GAMDPEF))
T1 construct: N-terminal vector artifact left after TEV cleavage; its first G is joined to the sortase peptide; human casein kinase 1 delta, catalytic domain, residues 1-317; After the sortase reaction the N-terminus should read biotin-LPET-GAMDPEF-; also called biotinylated CK1; not shown: His-GST, N-terminal, cleaved; biotin-LPETGG sortase peptide, N-terminal, kept
T1 sequence: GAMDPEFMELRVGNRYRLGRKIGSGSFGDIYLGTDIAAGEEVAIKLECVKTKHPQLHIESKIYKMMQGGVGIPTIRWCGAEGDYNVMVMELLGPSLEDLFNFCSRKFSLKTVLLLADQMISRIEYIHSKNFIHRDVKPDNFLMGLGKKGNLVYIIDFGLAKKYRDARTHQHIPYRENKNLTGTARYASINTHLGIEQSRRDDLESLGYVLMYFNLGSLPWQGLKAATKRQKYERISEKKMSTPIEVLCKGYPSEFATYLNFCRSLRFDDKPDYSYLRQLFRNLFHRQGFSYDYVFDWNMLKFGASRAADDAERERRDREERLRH
Experiment: BLI; biotinylated CK1δ ΔC immobilised on streptavidin biosensors, LIN-42 fragments titrated; SEC buffer (50 mM Tris pH 7.5, 200 mM NaCl, 1 mM EDTA, 5% glycerol, 1 mM TCEP, 0.05% Tween-20) with 7.5 mM BSA as printed; Octet-RED96e; kinetic analysis, 2:1 heterogeneous ligand binding model, global fit
Conditions: both partners purified
measured metric: Kd (nM)
Only the number, expressed in nM, is required.

LIN-42 CK1BD (residues 402–475) (domain or fragment, C. elegans, N-terminal vector artifact left after TEV cleavage; LIN-42, C. elegans, residues 402-475 (SYQ/CK1BD-A and LT/CK1BD-B); numbers fit the longest isoform of 598 amino acids; also called truncated fragment of LIN-42 lacking the C-terminal tail; source: E. coli Rosetta (DE3), purified (Ni-NTA, TEV cleavage, second Ni-NTA, SEC); not shown: His-NusA, N-terminal, cleaved) GAMDPEFLSYTQINCLENVHRLLKSQSRPESPAKQDEPFDEKKYPPQTPLTREALTLHTKRFEDEYKDTWCRRLKRLSDDV : 303

Please turn your attention to the following entry.
Requested read-out: Kd. Entry: LIN-42 CK1BD + Tail (residues 402–598) (domain or fragment, C. elegans, N-terminal vector artifact left after TEV cleavage; LIN-42, C. elegans, residues 402-598 (CK1BD and C-terminal tail); numbers fit the longest isoform of 598 amino acids; also called wild-type LIN-42 CK1BD + Tail; source: E. coli Rosetta (DE3), purified (Ni-NTA, TEV cleavage, second Ni-NTA, SEC); not shown: His-NusA, N-terminal, cleaved) GAMDPEFLSYTQINCLENVHRLLKSQSRPESPAKQDEPFDEKKYPPQTPLTREALTLHTKRFEDEYKDTWCRRLKRLSDDVPSSPPAKRTTPIHWTSSSQNHYRTMAPAPPPPPGKNYQITYTPLDDLTDQKSTNTKSDVENVAYPISGSKFSTPMRLSIDGLLPRGATSTGGASPTSGTNSPPVFPKTSSSSSLLMLRDSQN 309
